- Test target: recombinant H1-HA (D18-I530), A/California/06/2009 (H1N1)pdm09 (Influenza A virus A/California/06/2009 …, UniProt C3W5S1, strain)
- Experiment summary: SPR
- Stated conditions: both partners purified
// reported pKd per item
Worth noting: pKd values are minus log10 of concentrations stated in mol/L.

Examples with answers:
Binder: R2a-F9 (VHH, source: E. coli WK6 periplasm, purified (Talon IMAC, Superdex 75 SEC)) VHH: QVQLVESGGGLVQPGGSLRLSCSASGSISSIVTMGWYRQAPGKERELVAVIGNYGNTNYADSVKGRFTVSRDNAKNTVYLQMNSLNVEDTAMYVCKFSSTVAPHEYWGQGTQVTVSS
pKd: 7.10
--
Binder: R2a-G9 (VHH, source: E. coli WK6 periplasm, purified (Talon IMAC, Superdex 75 SEC)) VHH: QVQLVESGGGLVQPGGSLRLSCAASDNIFSFYTMGWYRQSPGKERELVAVIGNGGNTNYADSVKGRFTISRDNGKNKAHLQMNSLKPEDTAVYYCKASGPGGVEVWGQGTQVTVSS
pKd: 7.65
--
Binder: R1a-F4 (VHH, source: E. coli WK6 periplasm, purified (Talon IMAC, Superdex 75 SEC)) VHH: QVQLVESGGGLVQPGGSLRLSCAASGSISRIVTMGWYRQGPGKERELVAVIGNYGNTNYADSVKGRFTVSRDNAKDTAYLQMNNLNVEDTAMYYCKCSTTTPPHEFWGQGTQVTVSS
pKd: 8.19

Proceed to the following item.
Query: Entry under review: R2a-E8 (VHH, source: E. coli WK6 periplasm, purified (Talon IMAC, Superdex 75 SEC)) VHH: QLQLVESGGGLVQPGGSLRLSCTASGDIFVMYMIDWYRQAPGKQRELVASIDGRGTPMYADSVKGRFTISRDNAKNTVYLQMNSLKPEDTAVYSCHAKSPLVDNEYWGQGTQVTVSS . Reported pKd?
Response: 9.10
